The reported numbers originate from patent US20210292330A1.

STUDY SYSTEM: KRAS 4B G12C protein (Homo sapiens, UniProt P01116, G12C)
Construct: This protein contained 188 amino acids in total, including an N-terminal 6-Histidine tag; made in house; host or cells: E. coli BL21
PROCEDURE SUMMARY: In vitro covalent adduct formation (CAF) assay by LC-MS
Assay type: binding
CONDITION SET: 60 minutes; compound 10 μM, protein 5 μM, 22° C.; percentage of protein bound by the compound
RESULT TYPE: CAF (10 minutes/60 minutes) at 10 micromolar: 60 minutes (%)

Examples from the recorded data:
- C=CC(=O)N1CCN(c2nc(OC[C@@H]3CCCN3C)nc3c2CN(Cc2cc(F)ccc2F)C3)C[C@@H]1CC#N [1-27]: 97
- C=CC(=O)N1CCN(c2nc(OC[C@@H]3CCCN3C)nc3c2CN(Cc2c(Cl)c(F)cc4[nH]ncc24)C3)C[C@@H]1CC#N [1-183]: 93
- C=CC(=O)N1CCN(c2nc(OC[C@@H]3CCCN3C)nc3c2CN(C2CCc4ccccc42)C3)[C@H](C(N)=O)C1 (some centres unmarked) [1-182]: 30
- C=CC(=O)N1CCN(c2nc(OC[C@@H]3CCCN3C)nc3c2CN(C2CCc4ccccc42)C3)C[C@@H]1C(O)C(F)(F)F (some centres unmarked) [1-117]: 4
- C=CC(=O)N1[C@H](C)CN(c2nc(OC[C@@H]3CCCN3C)nc3c2CN(Cc2c(Cl)ccc(O)c2C)C3)C[C@@H]1C [1-333]: 59

A: C=CC(=O)N1CCN(c2nc(OC[C@@H]3CCCN3C)nc3c2CN(C2CC(C)(C)c4ccc(OC)cc42)C3)C[C@@H]1CC#N (some centres unmarked) [1-186]
B: C=CC(=O)N1CCN(c2nc(OC[C@@H]3CCCN3C)nc3c2CN(Cc2cc(F)ccc2C(C)C)C3)C[C@@H]1CC#N [1-172]
C: C=CC(=O)N1CCN(c2nc(OC[C@@H]3CCCN3C)nc3c2CN(C2CCc4ccccc42)C3)C[C@@H]1CCC#N (some centres unmarked) [1-212]
Exam item: Sort ascending by CAF (10 minutes/60 minutes) at 10 micromolar: 60 minutes. Response format: the labels, sorted as the prompt asks.
Marked response: C, A, B

P: C=CC(=O)N1CCN(c2nc(OC[C@@H]3CCCN3C)nc3c2CN(C(C)c2c(O)cccc2F)C3)C[C@@H]1CC#N (some centres unmarked) [1-111]
Q: C=CC(=O)N1CCN(c2nc(OC[C@@H]3CCCN3CC(C)C)nc3c2CN(C2CCc4ccccc42)C3)C[C@@H]1CC#N (some centres unmarked) [1-192]
Exam item: API: POST /compare with P and Q ; response names the item with higher CAF (10 minutes/60 minutes) at 10 micromolar: 60 minutes. Answer = label.
Marked response: P

1: C=C(F)C(=O)N1CCN(c2nc(OC[C@@H]3CCCN3C)nc3c2CN(Cc2c(Cl)ccc4nc[nH]c24)C3)C[C@@H]1CC#N [1-320]
2: C=CC(=O)N1CCN(c2nc(OC[C@@H]3CCCN3C)nc3c2CN(C2CCc4ccccc42)C3)[C@@H](C#N)C1 (some centres unmarked) [1-150]
Exam item: Please choose the item with the lower CAF (10 minutes/60 minutes) at 10 micromolar: 60 minutes value from this pair: 1 and 2 Give the label under which the chosen entry appears.
Marked response: 2
(2: 31%, 1: 91%)
